Value source: ChEMBL document CHEMBL4483862

Test system: Plasmodium berghei
Experiment: Luciferase/luciferin-expressing antifolate-resistant parasites were used to infect a culture of HepG2 cells that were pre-incubated with compounds. Infected hepatocytes emit light due to the luciferase reaction. Assay results are presented as the percent inhibition of light emission compared to control. […]
Format: functional
Settings: sporozoite, FFLUC_HILL_SLOPE 1.98, FFLUC_R_SQUARED 0.448, HEPG2TOX_HILL_SLOPE 4.19, HEPG2TOX_R_SQUARED 0.922, PBLUC_HILL_SLOPE 12.6, PBLUC_R_SQUARED 0.344, read-out: LUCIFERASE INFECTION ASSAY - IC50
measurement.label: pIC50
Entry type: numeric. Quantity: pIC50, the -log10 of concentration in molar units.

Which pIC50 value belongs to O=[N+]([O-])c1cnc(Sc2nnc(O)n2C2CCCCC2)s1 ?
5.09

---

Test system: Plasmodium berghei
Test: Luciferase/luciferin-expressing antifolate-resistant parasites were used to infect a culture of HepG2 cells that were pre-incubated with compounds. Infected hepatocytes emit light due to the luciferase reaction. Assay results are presented as the percent inhibition of light emission compared to control. […]
Assay type: functional
Conditions: sporozoite, read-out: LUCIFERASE INFECTION ASSAY - IC50
measurement.label: IC50

Query the reported IC50 for Plasmodium berghei; item: Cc1cc(=O)n2nc(CSc3ncc(-c4ccccc4)n3-c3c(C)cccc3C)sc2n1
2.38 µM

// query: C/C(=N\N1CCCCC1)c1ccccc1O
> 10 µM

// query: CCCCOc1ccc(C(=O)NCC(=O)N2CCN(C/C=C/c3ccccc3)CC2)cc1
5.03 µM

// query: Clc1ccc(OCc2cccnc2)c(CN2CCN(c3ncccn3)CC2)c1
> 10 µM

// query: CCOc1ccc(-n2c(SCC(=O)N(C)Cc3ccccc3)nc3ccccc32)cc1
> 10 µM

// query: CC(C)OCCCNCC(O)COCc1ccccc1Cl (stereo not drawn)
> 10 µM

// query: CCCSc1ccc2c3c(cccc13)C(=O)N(CCc1ccccn1)C2=O
> 8.77 µM

// query: Clc1ccc(SCc2nc(N3CCN(c4ncccn4)CC3)c3c4c(sc3n2)CCC4)cc1
> 10 µM

// query: COc1ccccc1-c1nc(COC(=O)c2cccnc2SC)cs1
> 10 µM

// query: Cn1cc(C(=O)ONC(=N)c2ccc(C(C)(C)C)cc2)c(C(F)(F)F)n1
> 8.96 µM

// query: O=C(Nc1cccc2c[nH]nc12)c1cn(-c2ccccc2Br)nn1
> 10 µM

// query: CCCCn1c(CSc2ccccn2)cn(-c2nnc(C(C)(C)C)s2)c1=O
> 8.18 µM

// query: N#Cc1ccc(CN2CCN(Cc3nnc(C(=O)Nc4ccc(Cl)cc4)s3)CC2)cc1
> 10 µM

// query: COc1ccccc1-c1nc2ccc(NC(=O)c3cc(C(C)(C)C)nn3C)cn2n1
> 10 µM

// query: O=S(=O)(c1ccc(C2=NNC(=NC3CC3)SC2)cc1)N1CCCCC1
> 10 µM

// query: Cc1ccc(C(C)C)cc1OS(=O)(=O)c1ccc(S(=O)(=O)N(C)C)cc1[N+](=O)[O-]
> 10 µM

// query: COc1cc(/C=C/C(=O)OCC(=O)Nc2cc(Cl)cc(Cl)c2)cc(OC)c1OC
> 10 µM

// query: Cc1noc(C)c1COC(=O)CC(c1ccccc1)c1ccccc1
> 10 µM

// query: O=C(Nc1ccc(Cl)cc1)n1ncc(Sc2ccc(Cl)cc2)c1-c1ccc(Cl)cc1
> 6.95 µM

// query: CN(CCC#N)C(=S)NCCc1ccccc1
> 10 µM

// query: CC(=O)c1csc(NC(=O)c2ccc(CSc3ccccc3)o2)n1
> 10 µM

// query: Cc1ccccc1C(C)NC(=O)c1c[nH]c(=S)n1-c1ccccc1 (stereo not drawn)
> 10 µM

// query: Cc1ccc(CSc2n[nH]c(=O)n2C2CC3C=CC2C3)cc1 (stereo not drawn)
> 10.5 µM

// query: CN(C)C(=O)Oc1ccc(Br)cc1C(=O)Nc1ccc(F)c(Cl)c1
> 7.94 µM

// query: CN(CCCc1[nH]nc(N)c1C#N)c1nc(-c2ccccn2)nc2scc(-c3ccccc3)c12
7.69 µM

// query: NC(=O)c1ccsc1NC(=O)COC(=O)c1ccc2c(c1Cl)C(=O)c1ccccc1C2=O
> 10 µM

// query: CCOc1ccc2nc(SCC(=O)N3Cc4ccccc4CC3C(=O)O)sc2c1 (stereo not drawn)
> 10 µM

// query: Cn1c(CC(=O)NNC(=O)/C=C/c2cccc(C(F)(F)F)c2)nc2ccccc21
3.4 µM

// query: CN1CCCN(c2ccc(NC(=O)OCC(F)(F)F)cc2F)CC1
> 10 µM

// query: COc1ncccc1-c1cc2c(cn1)nc(NCc1cccc(C)c1)n2C
> 10 µM

// query: Cc1sc2nc(-c3cccnc3)nc(NC3CCC(O)CC3)c2c1-c1ccccc1 (stereo not drawn)
> 10 µM

// query: Cc1cc2ncc(-c3ccnc(SCC(=O)Nc4cccc(C(F)(F)F)c4)n3)c(C)n2n1
> 7.2 µM

// query: Cc1nn(C)c2nc(C3CC3)cc(C(=O)Nc3ccccc3C(=O)NC(C)c3ccccc3)c12 (stereo not drawn)
8.82 µM

// query: Cc1cccc(CNc2nc3cnc(-c4ccccc4)cc3n2C)c1
> 10 µM

// query: Cc1cc2ccccn2c1C(=O)c1cc2c(C)nn(-c3ccccc3)c2s1
> 10 µM

// query: CCNC(=O)C1CCCN(C(=O)c2c(-c3ccccc3)noc2C)CC1 (stereo not drawn)
> 9.28 µM

// query: c1ccc(-n2nnnc2Sc2ncnc3sc4c(c23)CCC4)cc1
> 10 µM

// query: COc1ccc(C2NC(=O)NC(c3ccccc3)=C2c2nc3ccccc3s2)cc1OCc1ccccc1 (stereo not drawn)
9.63 µM

// query: O=C(Nc1nc2ccccn2c1C(=O)NC1CCCC1)c1ccc(F)cc1F
2.94 µM

// query: O=[N+]([O-])c1cnc(Sc2nnc(O)n2-c2ccc(OCc3ccccc3)cc2)s1
3.81 µM

// query: COc1ccc(C(c2ccc(N(C)C)cc2)c2ccc(N(C)C)cc2)c(C)c1C
> 8.49 µM

// query: O=C(NNC(=S)Nc1cc(C(F)(F)F)cc(C(F)(F)F)c1)c1cccnc1Oc1ccccc1
> 6.59 µM

// query: COc1ccc(CNc2nc3cnc(Nc4ccc(F)c(Cl)c4)cc3n2C)cc1OC
> 10 µM
